study target: αvβ6 (Homo sapiens, UniProt P06756+P18564)
Sequence (P06756 31-992 limits assumed): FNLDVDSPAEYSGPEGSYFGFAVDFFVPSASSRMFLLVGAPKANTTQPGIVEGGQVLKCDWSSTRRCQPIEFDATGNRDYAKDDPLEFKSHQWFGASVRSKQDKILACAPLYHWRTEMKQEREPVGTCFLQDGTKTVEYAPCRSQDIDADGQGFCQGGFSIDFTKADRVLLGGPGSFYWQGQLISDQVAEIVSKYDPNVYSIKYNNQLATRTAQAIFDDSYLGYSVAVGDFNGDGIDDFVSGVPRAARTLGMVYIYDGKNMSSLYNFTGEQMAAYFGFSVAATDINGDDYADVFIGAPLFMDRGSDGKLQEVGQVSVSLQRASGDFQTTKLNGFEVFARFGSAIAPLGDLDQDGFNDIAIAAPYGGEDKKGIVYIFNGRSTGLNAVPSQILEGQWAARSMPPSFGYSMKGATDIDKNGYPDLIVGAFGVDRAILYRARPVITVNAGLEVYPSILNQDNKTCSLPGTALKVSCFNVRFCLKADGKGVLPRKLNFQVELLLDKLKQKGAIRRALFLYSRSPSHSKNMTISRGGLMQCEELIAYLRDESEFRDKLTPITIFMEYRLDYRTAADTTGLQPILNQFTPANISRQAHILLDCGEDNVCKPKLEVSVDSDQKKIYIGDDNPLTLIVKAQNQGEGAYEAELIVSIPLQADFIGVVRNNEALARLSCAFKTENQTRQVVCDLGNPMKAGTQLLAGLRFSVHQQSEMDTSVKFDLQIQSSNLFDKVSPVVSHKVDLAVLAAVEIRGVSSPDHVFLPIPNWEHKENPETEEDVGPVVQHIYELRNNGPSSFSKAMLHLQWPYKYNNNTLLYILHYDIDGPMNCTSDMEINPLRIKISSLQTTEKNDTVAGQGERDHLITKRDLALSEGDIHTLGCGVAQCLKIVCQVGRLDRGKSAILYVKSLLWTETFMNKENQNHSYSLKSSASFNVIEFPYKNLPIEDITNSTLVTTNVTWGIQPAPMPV
Sequence (P18564 22-707 limits assumed): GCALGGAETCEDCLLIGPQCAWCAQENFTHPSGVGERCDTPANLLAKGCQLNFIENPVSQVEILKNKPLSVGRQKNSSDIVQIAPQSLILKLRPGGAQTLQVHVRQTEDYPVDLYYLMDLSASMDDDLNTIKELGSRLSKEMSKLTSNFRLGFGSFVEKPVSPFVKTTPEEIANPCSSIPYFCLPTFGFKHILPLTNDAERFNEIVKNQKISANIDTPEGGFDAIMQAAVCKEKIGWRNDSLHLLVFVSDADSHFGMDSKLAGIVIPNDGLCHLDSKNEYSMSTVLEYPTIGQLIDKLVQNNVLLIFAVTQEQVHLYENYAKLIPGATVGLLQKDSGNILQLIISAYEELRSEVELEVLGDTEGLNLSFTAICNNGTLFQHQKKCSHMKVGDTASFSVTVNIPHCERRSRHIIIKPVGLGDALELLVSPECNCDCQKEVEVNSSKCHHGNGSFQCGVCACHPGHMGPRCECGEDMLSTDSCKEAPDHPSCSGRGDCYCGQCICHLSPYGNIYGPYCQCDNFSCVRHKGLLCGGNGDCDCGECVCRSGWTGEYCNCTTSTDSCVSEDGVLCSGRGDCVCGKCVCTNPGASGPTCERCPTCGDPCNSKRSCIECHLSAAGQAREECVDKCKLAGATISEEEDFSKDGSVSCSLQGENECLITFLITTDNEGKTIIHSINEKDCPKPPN
protocol: Solid Phase Integrin αvβ6 Assay
Each item that follows carries a reported IC50.

Field: example entries. Status: answers known.
> print(dat)
                                   compound     observed
1  O=C(CC[C@@H](C(=O)O)c1ccccc1)N[C@H]1CCN(C(=O)CCCc2ccc3c(n2)NCCC3)C1       > 1 µM
2  CC(C)(C(=O)N[C@@H](CNC(=O)[C@@H]1CCCN(CCCc2ccc3c(n2)NCCC3)C1)C(=O)O)c1ccccc1     < 0.1 µM
3  O=C(O)C[C@@H](NC(=O)[C@@H]1CCCN(CCCc2ccc3c(n2)NCCC3)C1)c1ccc2c(c1)CCCC2 (single isomer, unassigned)     < 0.1 µM
4  C[C@H]1C[C@H](C(=O)NC[C@H](C(=O)O)c2cccc(-c3ccccc3)c2)CN(CCCc2ccc3c(n2)NCCC3)C1     < 0.1 µM
5  O=C(O)C[C@H](CC(=O)N[C@@H]1CCN(CCCCc2ccc3c(n2)NCCC3)C1)c1ccccc1  0.1 to 1 µM

# input Specify IC50 for Cc1cc(C(F)(F)F)nn1-c1cccc([C@H](CO[C@@H]2CCCN(CCCc3ccc4c(n3)NCCC4)C2)CC(=O)O)c1 and stop.
# output < 0.1 µM

# input Specify IC50 for O=C(O)C[C@H](NC(=O)[C@@H]1CCCN(CCCc2ccc3c(n2)NCCC3)C1)c1ccc(F)c(C2CC2)c1 and stop.
# output < 0.1 µM

* * *

Each item that follows carries a reported pIC50.
study target: αvβ6 (Homo sapiens, UniProt P06756+P18564)
protocol: Solid Phase Integrin αvβ6 Assay
pIC50: −log10 of the molar value. Where a name gives a salt, the structure may show the parent alone.

Field: example entries. Status: answers known.
> print(dat)
                                   compound  measurement.name      observed
1  O=C(N[C@@H](CNC(=O)[C@@H]1CCCN(CCCc2ccc3c(n2)NCCC3)C1)C(=O)O)c1cc(Cl)ccc1Cl [Compound 364]             pIC50        > 7.00
2  O=C(O)C[C@H](CO[C@@H]1CCCN(CCCc2ccc3c(n2)NCCC3)C1)c1ccccc1 [Compound 297-A]             pIC50  6.00 to 7.00
3  O=C(NC[C@@H](C(=O)O)c1cccc(-c2ccccc2)c1)[C@@H]1CCCN(CCCc2ccc3c(n2)NCCC3)C1 [Compound 256-A]             pIC50  6.00 to 7.00
4  O=C(O)C[C@H](NC(=O)[C@@H]1CCCN(CCCc2ccc3c(n2)NCCC3)C1)c1ccc2c(c1)OCO2 [Compound 214]             pIC50        > 7.00
5  O=C(N[C@H](CCO[C@@H]1CCCN(CCCc2ccc3c(n2)NCCC3)C1)C(=O)O)c1ccccc1 [Compound 479]             pIC50  6.00 to 7.00

# input Specify pIC50 for O=C(O)C[C@H](NC(=O)[C@@H]1CCCN(CCCc2ccc3c(n2)NCCC3)C1)c1cc(C2CC2)ccc1F [Compound 245-A] and stop.
# output > 7.00

# input Specify pIC50 for O=C(O)[C@H](CO[C@@H]1CCCN(CCCCc2ccc3c(n2)NCCC3)C1)c1ccccc1 [Compound 395] and stop.
# output < 6.00

# input Specify pIC50 for O=C(NC[C@H](C(=O)O)c1cccc2ccccc12)[C@@H]1CCCN(CCCc2ccc3c(n2)NCCC3)C1 [Compound 250-B] and stop.
# output < 6.00

# input Specify pIC50 for O=C(CC[C@H](NC(=O)C12CCC(CC1)CC2)C(=O)O)N[C@@H]1CCN(CCCCc2ccc3c(n2)NCCC3)C1 [Compound 426] and stop.
# output > 7.00

# input Specify pIC50 for O=C(NC[C@H](NS(=O)(=O)C1CCCCC1)C(=O)O)[C@@H]1CCCN(CCCc2ccc3c(n2)NCCC3)C1 [Compound 274, hydrochloride] and stop.
# output > 7.00

# input Specify pIC50 for O=C(O)C[C@@H](O[C@@H]1CCCN(Cc2ccc3c(n2)NCCC3)C1)c1ccccc1 [Compound 390] and stop.
# output < 6.00

# input Specify pIC50 for CN(C[C@@H](CC(=O)O)c1ccccc1)[C@@H]1CCCN(CCCc2ccc3c(n2)NCCC3)C1 [Compound 296] and stop.
# output < 6.00

# input Specify pIC50 for O=C(O)[C@H](CCO[C@@H]1CCCN(CCCc2ccc3c(n2)NCCC3)C1)Nc1ncnc2ccccc12 [Compound 334] and stop.
# output > 7.00

# input Specify pIC50 for O=C(O)C[C@H](OC[C@@H]1CCCN(CCCc2ccc3c(n2)NCCC3)C1)c1cccc(C2CC2)c1 [Compound 528] and stop.
# output < 6.00
